molecular target: human GAT1 (Homo sapiens, UniProt P30531); construct: expressed in transfected cells; host or cells: HEK293; assay: Uptake inhibition of [3H]GABA in HEK293 cells expressing YhGAT1; format: cell-based; settings: λ basal; [3H]GABA uptake; read-out: hGAT1 IC50 ± SD
Sequence (P30531 whole entry): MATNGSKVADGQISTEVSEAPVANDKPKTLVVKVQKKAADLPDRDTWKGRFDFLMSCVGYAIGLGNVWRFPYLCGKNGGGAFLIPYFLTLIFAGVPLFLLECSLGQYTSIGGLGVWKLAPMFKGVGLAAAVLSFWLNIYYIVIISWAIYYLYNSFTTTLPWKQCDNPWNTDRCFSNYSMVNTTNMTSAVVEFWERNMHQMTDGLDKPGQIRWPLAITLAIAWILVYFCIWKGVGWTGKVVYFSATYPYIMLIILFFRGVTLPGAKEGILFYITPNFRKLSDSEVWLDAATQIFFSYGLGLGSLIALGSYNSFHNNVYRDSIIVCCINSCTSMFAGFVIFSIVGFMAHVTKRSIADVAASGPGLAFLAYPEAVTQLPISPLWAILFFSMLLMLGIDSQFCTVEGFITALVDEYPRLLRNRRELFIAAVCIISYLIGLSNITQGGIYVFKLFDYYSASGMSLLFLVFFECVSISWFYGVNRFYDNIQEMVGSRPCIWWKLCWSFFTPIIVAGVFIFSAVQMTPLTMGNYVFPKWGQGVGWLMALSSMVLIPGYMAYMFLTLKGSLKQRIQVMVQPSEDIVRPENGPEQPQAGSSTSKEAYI
pIC50: −log10 of the molar value.
parameter: pIC50

Fc1ccc([C@@H]2CCNC[C@H]2COc2ccc3c(c2)OCO3)cc1 [Paroxetine, paroxetine, reference compound]; 3.91
c1ccc(/N=N/c2ccc([C@@H]3CCNC[C@H]3COc3ccc4c(c3)OCO4)cc2)cc1; 4.09

----------
Molecular target: human GAT3 (Homo sapiens)
Construct: expressed in transfected cells; host or cells: HEK293
Assay: Uptake inhibition of [3H]GABA in HEK293 cells expressing hGAT3
Assay type: cell-based
Details: λ basal; [3H]GABA uptake; read-out: hGAT3 IC50 ± SD
Method: The cells were cultured in a humidified atmosphere (37°C, 5% CO2) on standard plastic culture ware. To maintain the selection pressure for the stable cell lines, 150 units/mL Geneticin was added. Cells were typically not passaged over 25 times. […]
pIC50: −log10 of the molar value.
parameter: pIC50

Fc1ccc([C@@H]2CCNC[C@H]2COc2ccc3c(c2)OCO3)cc1 [Paroxetine, paroxetine, reference compound]; 4.29
c1ccc(/N=N/c2ccc([C@@H]3CCNC[C@H]3COc3ccc4c(c3)OCO4)cc2)cc1; 4.26

----------
test: Thermal (Z)/(E) isomerization half-life by UV/Vis; assay type: physicochemical; settings: (Z)-isomer; 50 μM in dry DMSO, 23 °C; read-out: half-life time of thermal (Z)/(E) isomerization (converted)
parameter: half-life at 50 μM (h)
Record the value in h, omitting the unit from your answer.

# input I'd like to know its half-life at 50 μM. The compound in question is c1ccc(/N=N/c2ccc([C@@H]3CCNC[C@H]3COc3ccc4c(c3)OCO4)cc2)cc1 [Azo‐paroxetine (9)]
# output 156

----------
target: human SERT (Homo sapiens, UniProt P31645); assay: Uptake inhibition of [3H]5-HT in HEK293 cells stably expressing YhSERT; assay type: cell-based; conditions: λ basal (standard light, (E)-isomer); [3H]5-HT uptake; read-out: SERT IC50 ± SD
Sequence (P31645 whole entry): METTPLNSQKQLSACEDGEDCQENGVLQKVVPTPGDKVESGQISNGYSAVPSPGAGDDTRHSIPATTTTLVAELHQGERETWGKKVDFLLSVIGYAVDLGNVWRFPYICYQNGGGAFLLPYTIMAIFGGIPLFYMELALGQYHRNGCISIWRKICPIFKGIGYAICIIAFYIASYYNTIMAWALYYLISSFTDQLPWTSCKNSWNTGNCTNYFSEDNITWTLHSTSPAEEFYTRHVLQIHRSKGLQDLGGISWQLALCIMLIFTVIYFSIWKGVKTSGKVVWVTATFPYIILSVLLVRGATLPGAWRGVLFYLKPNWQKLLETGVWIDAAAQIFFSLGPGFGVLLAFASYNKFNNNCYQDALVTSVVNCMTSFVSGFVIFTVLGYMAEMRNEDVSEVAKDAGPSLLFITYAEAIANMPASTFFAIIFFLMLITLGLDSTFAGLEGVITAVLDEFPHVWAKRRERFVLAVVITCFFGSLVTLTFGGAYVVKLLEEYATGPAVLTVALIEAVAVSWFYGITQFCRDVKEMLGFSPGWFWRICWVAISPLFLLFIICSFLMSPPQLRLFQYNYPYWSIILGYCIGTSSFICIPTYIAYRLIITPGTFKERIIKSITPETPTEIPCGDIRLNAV
parameter: pIC50
Just so you know, pIC50 here is -log10 of the concentration in molar units; reply with that number alone.

# input I'd like to know its pIC50. The compound in question is c1ccc(/N=N/c2ccc([C@@H]3CCNC[C@H]3COc3ccc4c(c3)OCO4)cc2)cc1
# output 5.03

----------
target: hNET (Homo sapiens, UniProt P23975); test: Uptake inhibition of [3H]MPP+ in HEK293 cells stably expressing hNET; type: cell-based; conditions: λ 365 nm; [3H]MPP+ uptake; read-out: NET IC50 ± SD
Sequence (P23975 whole entry): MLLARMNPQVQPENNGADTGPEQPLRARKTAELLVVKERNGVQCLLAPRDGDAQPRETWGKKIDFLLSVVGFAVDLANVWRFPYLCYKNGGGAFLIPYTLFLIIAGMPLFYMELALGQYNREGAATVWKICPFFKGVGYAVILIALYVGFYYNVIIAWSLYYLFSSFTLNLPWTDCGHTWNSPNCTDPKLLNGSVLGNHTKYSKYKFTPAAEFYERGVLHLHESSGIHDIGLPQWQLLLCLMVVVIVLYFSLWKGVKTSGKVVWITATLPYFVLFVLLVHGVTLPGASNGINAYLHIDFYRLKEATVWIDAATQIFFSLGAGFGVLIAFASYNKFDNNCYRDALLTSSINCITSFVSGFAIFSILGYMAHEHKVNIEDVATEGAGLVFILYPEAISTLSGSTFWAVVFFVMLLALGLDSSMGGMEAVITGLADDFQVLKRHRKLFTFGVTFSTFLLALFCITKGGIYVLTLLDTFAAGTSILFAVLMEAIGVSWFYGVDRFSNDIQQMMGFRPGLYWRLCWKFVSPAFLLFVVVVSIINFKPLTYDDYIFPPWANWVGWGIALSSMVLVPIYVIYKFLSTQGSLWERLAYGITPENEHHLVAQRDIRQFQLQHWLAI
parameter: IC50 (µM)
Record the value in µM, omitting the unit from your answer.

# input Short answer please: IC50, hNET (Homo sapiens, UniProt P23975), entry c1ccc(/N=N/c2ccc([C@@H]3CCNC[C@H]3COc3ccc4c(c3)OCO4)cc2)cc1 [Azo‐paroxetine (9)]
# output 5.41

----------
target: human GAT1 (Homo sapiens, UniProt P30531); construct: expressed in transfected cells; host or cells: HEK293; experiment: Uptake inhibition of [3H]GABA in HEK293 cells expressing YhGAT1; assay type: cell-based; settings: λ 365 nm; [3H]GABA uptake; read-out: hGAT1 IC50 ± SD
parameter: IC50 (µM)
Record the value in µM, omitting the unit from your answer.

# input I'd like to know its IC50. The molecule in question is c1ccc(/N=N/c2ccc([C@@H]3CCNC[C@H]3COc3ccc4c(c3)OCO4)cc2)cc1
# output 107

----------
molecular target: rat GAT1 (Rattus norvegicus, UniProt P23978); construct: expressed in transfected cells; experiment: Uptake inhibition of [3H]GABA in HEK293 cells expressing YrGAT1; format: cell-based; details: λ 365 nm; [3H]GABA uptake; read-out: rGAT IC50 ± SD
parameter: IC50 (µM)
Record the value in µM, omitting the unit from your answer.

# input Short answer please: IC50, rat GAT1 (Rattus norvegicus, UniProt P23978), entry c1ccc(/N=N/c2ccc([C@@H]3CCNC[C@H]3COc3ccc4c(c3)OCO4)cc2)cc1 [Azo‐paroxetine (9)]
# output 126

----------
molecular target: hNET (Homo sapiens, UniProt P23975); assay: Uptake inhibition of [3H]MPP+ in HEK293 cells stably expressing hNET; type: cell-based; conditions: λ basal; [3H]MPP+ uptake; read-out: NET IC50 ± SD
parameter: pIC50
Just so you know, pIC50 here is -log10 of the concentration in molar units; reply with that number alone.

# input I'd like to know its pIC50. The compound in question is c1ccc(/N=N/c2ccc([C@@H]3CCNC[C@H]3COc3ccc4c(c3)OCO4)cc2)cc1
# output 4.81

----------
molecular target: human GAT3 (Homo sapiens, UniProt P48066); construct: expressed in transfected cells; host or cells: HEK293; assay: Uptake inhibition of [3H]GABA in HEK293 cells expressing hGAT3; assay type: cell-based; settings: λ 365 nm; [3H]GABA uptake; read-out: hGAT3 IC50 ± SD
Sequence (P48066 whole entry): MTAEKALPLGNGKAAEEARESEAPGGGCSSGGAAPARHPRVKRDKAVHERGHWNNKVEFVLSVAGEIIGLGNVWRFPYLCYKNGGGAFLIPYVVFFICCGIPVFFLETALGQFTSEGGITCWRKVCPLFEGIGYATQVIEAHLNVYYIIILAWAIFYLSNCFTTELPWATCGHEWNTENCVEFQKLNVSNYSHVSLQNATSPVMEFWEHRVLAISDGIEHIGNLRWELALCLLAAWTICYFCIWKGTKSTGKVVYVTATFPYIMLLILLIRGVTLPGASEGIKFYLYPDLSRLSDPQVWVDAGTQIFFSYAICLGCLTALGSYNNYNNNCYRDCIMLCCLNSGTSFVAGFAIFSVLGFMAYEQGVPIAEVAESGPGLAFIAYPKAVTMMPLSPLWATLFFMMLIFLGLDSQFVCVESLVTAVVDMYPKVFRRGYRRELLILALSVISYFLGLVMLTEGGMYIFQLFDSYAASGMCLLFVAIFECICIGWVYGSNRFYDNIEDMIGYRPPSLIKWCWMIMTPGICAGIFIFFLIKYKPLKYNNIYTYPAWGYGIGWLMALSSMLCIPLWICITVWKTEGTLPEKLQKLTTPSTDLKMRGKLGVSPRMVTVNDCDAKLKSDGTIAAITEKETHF
parameter: IC50 (µM)
Record the value in µM, omitting the unit from your answer.

# input I'd like to know its IC50. The compound in question is c1ccc(/N=N/c2ccc([C@@H]3CCNC[C@H]3COc3ccc4c(c3)OCO4)cc2)cc1 [Azo‐paroxetine (9)]
# output 90.5

----------
biological target: human SERT (Homo sapiens); assay: Uptake inhibition of [3H]5-HT in HEK293 cells stably expressing YhSERT; format: cell-based; conditions: λ 365 nm (PSS, mainly (Z)-isomer); [3H]5-HT uptake; read-out: SERT IC50 ± SD
parameter: IC50 (nM)
Record the value in nM, omitting the unit from your answer.

# input Short answer please: IC50, human SERT (Homo sapiens), entry c1ccc(/N=N/c2ccc([C@@H]3CCNC[C@H]3COc3ccc4c(c3)OCO4)cc2)cc1
# output 760
